Organism: Rattus norvegicus
Experiment: Dose required to reduce serum cholesterol by 50% relative to ovariectomized (OVX) controls
Format: functional
Label rule met when ED50 is strictly below 0.2 mg/kg; otherwise label rule not met.

>  <Molecule>
CCN(CC)CCOc1ccc(C2Oc3cc(O)ccc3-c3sc4cc(O)ccc4c32)cc1 (stereo not drawn)

>  <Assigned label>
rule not met

$$$$
>  <Molecule>
Oc1ccc2c(c1)OC(c1ccc(OCCN3CCCCC3)cc1)c1c-2ccc2cc(O)ccc12 (stereo not drawn)

>  <Assigned label>
rule met

$$$$
>  <Molecule>
C#C[C@]1(O)CC[C@H]2[C@@H]3CCc4cc(O)ccc4[C@H]3CC[C@@]21C

>  <Assigned label>
rule met

$$$$
>  <Molecule>
Oc1ccc2c3c(sc2c1)-c1ccccc1OC3c1ccc(OCCN2CCCCC2)cc1 (stereo not drawn)

>  <Assigned label>
rule not met

$$$$
>  <Molecule>
c1ccc2c(c1)OC(c1ccc(OCCN3CCCCC3)cc1)c1c-2sc2ccccc12 (stereo not drawn)

>  <Assigned label>
rule not met

$$$$

Exam item: Hello, I'm reviewing records and need to know if ED50 of Oc1ccc2c(c1)OC(c1ccc(OCCN3CCCCC3)cc1)c1c-2sc2ccccc12 (stereo not drawn) is below 0.2 mg/kg. Could you check?
Marked response: rule not met

Exam item: Hello, I'm reviewing records and need to know if ED50 of Oc1ccc2c(c1)OC(c1ccc(OCCN3CCCCC3)cc1)c1c-2oc2cc(O)ccc12 (stereo not drawn) is below 0.2 mg/kg. Could you check?
Marked response: rule not met

Exam item: Hello, I'm reviewing records and need to know if ED50 of Oc1ccc2c(c1)OC(c1ccc(OCCN3CCOCC3)cc1)c1c-2sc2cc(O)ccc12 (stereo not drawn) is below 0.2 mg/kg. Could you check?
Marked response: rule not met

Exam item: Hello, I'm reviewing records and need to know if ED50 of Oc1ccc2c(c1)OC(c1ccc(OCCN3CCCCC3)cc1)c1c-2sc2cc(O)ccc12 (stereo not drawn) is below 0.2 mg/kg. Could you check?
Marked response: rule met

Exam item: Hello, I'm reviewing records and need to know if ED50 of CN(C)CCOc1ccc(C2Oc3cc(O)ccc3-c3sc4cc(O)ccc4c32)cc1 (stereo not drawn) is below 0.2 mg/kg. Could you check?
Marked response: rule not met

* * *

Tested on: Rattus norvegicus
Experiment: Percent decrease in serum cholesterol relative to OVX controls, at 1.0 mg/Kg compound dose
Type: functional
Quick reference for Decrease among some molecules
Numbers only; they are read as %.

>  <Molecule>
Oc1ccc2c(c1)OC(c1ccc(OCCN3CCCCC3)cc1)c1c-2sc2cc(O)ccc12 (stereo not given)

>  <Decrease / %>
47.6

$$$$
>  <Molecule>
Oc1ccc2c(c1)OC(c1ccc(OCCN3CCOCC3)cc1)c1c-2sc2cc(O)ccc12 (stereo not given)

>  <Decrease / %>
14.3

$$$$
>  <Molecule>
Oc1ccc2c3c(sc2c1)-c1ccccc1OC3c1ccc(OCCN2CCCCC2)cc1 (stereo not given)

>  <Decrease / %>
51.5

$$$$
>  <Molecule>
CC/C(=C(\c1ccccc1)c1ccc(OCCN(C)C)cc1)c1ccccc1

>  <Decrease / %>
71.1

$$$$
>  <Molecule>
Oc1ccc2c(c1)OC(c1ccc(OCCN3CCCC3)cc1)c1c-2sc2cc(O)ccc12 (stereo not given)

>  <Decrease / %>
68

$$$$
>  <Molecule>
O=C1CCCN1CCOc1ccc(C2Oc3cc(O)ccc3-c3sc4cc(O)ccc4c32)cc1 (stereo not given)

>  <Decrease / %>
4.4

$$$$

# Decrease of CN(C)CCOc1ccc(C2Oc3cc(O)ccc3-c3sc4cc(O)ccc4c32)cc1 (stereo not given) = 54.7

# Decrease of CCN(CC)CCOc1ccc(C2Oc3cc(O)ccc3-c3sc4cc(O)ccc4c32)cc1 (stereo not given) = 38.7

# Decrease of Oc1ccc2c(c1)OC(c1ccc(OCCN3CCCCC3)cc1)c1c-2sc2ccccc12 (stereo not given) = 53.7

# Decrease of Oc1ccc2c(c1)OC(c1ccc(OCCN3CCCCC3)cc1)c1c-2ccc2cc(O)ccc12 (stereo not given) = 65.7

Data origin: ChEMBL document CHEMBL1131328
